# TGT: Cyclooxygenase (Bos taurus, UniProt O62664+O62698)
# Sequence (O62664 whole entry): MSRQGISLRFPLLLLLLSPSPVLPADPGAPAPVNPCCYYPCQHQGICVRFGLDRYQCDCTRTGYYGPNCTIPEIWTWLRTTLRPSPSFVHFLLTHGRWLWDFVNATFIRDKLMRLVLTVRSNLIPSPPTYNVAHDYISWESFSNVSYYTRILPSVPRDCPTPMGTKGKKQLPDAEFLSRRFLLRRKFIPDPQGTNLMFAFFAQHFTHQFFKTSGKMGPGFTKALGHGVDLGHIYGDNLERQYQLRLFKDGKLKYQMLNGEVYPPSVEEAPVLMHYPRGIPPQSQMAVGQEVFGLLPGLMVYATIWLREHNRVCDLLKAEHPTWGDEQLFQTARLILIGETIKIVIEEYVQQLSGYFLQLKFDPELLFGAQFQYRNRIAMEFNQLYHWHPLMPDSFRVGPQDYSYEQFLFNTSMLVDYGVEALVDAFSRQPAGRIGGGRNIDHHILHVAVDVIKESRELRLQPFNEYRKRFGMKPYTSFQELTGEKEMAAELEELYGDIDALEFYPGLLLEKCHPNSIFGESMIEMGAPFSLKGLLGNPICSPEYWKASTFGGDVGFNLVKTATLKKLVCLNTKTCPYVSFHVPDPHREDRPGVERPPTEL
# Sequence (O62698 whole entry): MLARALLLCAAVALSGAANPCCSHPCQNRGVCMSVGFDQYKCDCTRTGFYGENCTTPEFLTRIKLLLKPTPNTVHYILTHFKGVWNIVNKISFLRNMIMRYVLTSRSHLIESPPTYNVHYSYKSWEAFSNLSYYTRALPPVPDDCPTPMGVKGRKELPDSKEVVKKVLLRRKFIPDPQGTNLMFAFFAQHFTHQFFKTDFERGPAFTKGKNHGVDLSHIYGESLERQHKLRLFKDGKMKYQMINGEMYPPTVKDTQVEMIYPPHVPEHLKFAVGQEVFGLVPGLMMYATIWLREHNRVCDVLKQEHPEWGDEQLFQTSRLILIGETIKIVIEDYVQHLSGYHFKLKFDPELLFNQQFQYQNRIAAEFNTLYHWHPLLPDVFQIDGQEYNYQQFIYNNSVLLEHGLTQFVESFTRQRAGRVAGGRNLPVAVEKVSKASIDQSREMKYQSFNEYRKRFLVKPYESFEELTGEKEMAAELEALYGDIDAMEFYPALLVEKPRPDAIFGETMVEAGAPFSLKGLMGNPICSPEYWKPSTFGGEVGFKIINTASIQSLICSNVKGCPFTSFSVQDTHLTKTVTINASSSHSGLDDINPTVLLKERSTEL
ASSAY_METRIC: log IC50

{"columns": ["MOLECULE", "log IC50"],
 "data": [
  ["O=C(O)Cc1ccccc1Nc1ccccc1Cl", 2.31],
  ["O=C(O)Cc1ccccc1Nc1ccc(Cl)cc1Cl", 1.85],
  ["O=C([O-])Cc1cc(F)ccc1Nc1c(Cl)cccc1Cl.[Na+]", 0.13],
  ["O=C([O-])Cc1cc(F)ccc1Nc1c(Cl)cc(F)cc1Cl.[Na+]", 0.25],
  ["O=C(O)Cc1ccccc1Nc1cc(Cl)cc(Cl)c1", 1.9],
  ["COc1ccc(Cl)c(Nc2ccccc2CC(=O)O)c1Cl", 1.04],
  ["Cc1c(Cl)cccc1Nc1ccccc1CC(=O)O", 1.04],
  ["O=C(O)Cc1ccccc1Nc1c(Cl)ccc(O)c1Cl [3'-HYDROXY-DICLOFENAC]", 1]
]}

P = CCc1cccc(CC)c1Nc1ccccc1CC(=O)O
Q = O=C(O)Cc1ccccc1Nc1c(Cl)cccc1I
Sort P and Q by log IC50 descending and give the first. Lab note: record the label of whichever item you select.
P

====

# TEST_DETAILS: Partition coefficient (logD7.4)
# CONDITIONS: octanol/water, pH 7.4
ASSAY_METRIC: logD

These recorded examples may help you get a feel for the data.
{"columns": ["COMPOUND", "logD"],
 "data": [
  ["O=C([O-])Cc1ccccc1Nc1c(F)cccc1F.[Na+]", 0.26],
  ["O=C([O-])Cc1cc(F)ccc1Nc1c(Cl)cccc1Cl.[Na+]", 1.48],
  ["O=C(O)Cc1ccccc1Nc1c(Cl)cccc1I", 1.64],
  ["O=C([O-])Cc1ccccc1Nc1c(Cl)cccc1Br.[Na+]", 1.44],
  ["O=C(O)Cc1ccccc1Nc1ccc(Cl)cc1Cl", 1.33],
  ["O=C(O)Cc1ccccc1Nc1c(Cl)cc(O)cc1Cl [4'-HYDROXY-DICLOFENAC]", 0.7],
  ["Cc1cccc(C)c1Nc1ccccc1CC(=O)O", 1.21],
  ["O=C(O)Cc1c(Br)cccc1Nc1c(Cl)cccc1Cl", 1.87]
]}

a = O=C(O)Cc1ccccc1Nc1c(Cl)ccc(O)c1Cl [3'-HYDROXY-DICLOFENAC]
b = Cc1cccc(Cl)c1Nc1ccccc1CC(=O)O
c = Cc1cc(C)c(C)c(Nc2ccccc2CC(=O)O)c1C
Order the items by recorded logD; the first position goes to the largest value. Lab note: final answer is the ordered label list.
c, b, a

1 = O=C([O-])Cc1ccccc1Nc1c(Cl)cc(F)cc1Cl.[Na+]
2 = Cc1cc(C)c(C)c(Nc2ccc(Cl)cc2CC(=O)O)c1C
3 = O=C(O)Cc1ccccc1Nc1ccccc1
With regard to logD, arrange the entries in ascending order, please. # list labels per requested ordering
3, 1, 2
(3: 0.19, 1: 1.27, 2: 2.93)

a = Cc1cccc(Nc2ccccc2CC(=O)O)c1C
b = O=C([O-])Cc1cc(F)ccc1Nc1c(Cl)cc(F)cc1Cl.[Na+]
Looking only at measured logD, which entry is lower, a or b ? Reply with the label of the item you choose.
a

1 = COc1cc(Cl)c(Nc2ccccc2CC(=O)O)c(Cl)c1
2 = COc1cc(Cl)c(Nc2ccccc2CC(=O)O)c(Cl)c1O [3'-HYDROXY-4'-METHOXY-DICLOFENAC]
3 = O=C([O-])Cc1ccccc1Nc1ccc(F)cc1F.[Na+]
4 = O=C(O)Cc1ccccc1Nc1cc(Cl)cc(Cl)c1
hey, can you rank those compounds up there by logD? biggest number first please # format: label list in the order the request specifies
4, 1, 3, 2
(4: 1.98, 1: 1.24, 3: 0.55, 2: 0.25)

====

# TEST_DETAILS: Dissociation constant (pKa)
# Type: physicochemical
ASSAY_METRIC: pKa

{"columns": ["COMPOUND", "pKa"],
 "data": [
  ["Cc1cccc(Cl)c1Nc1ccccc1CC(=O)O", 4.2],
  ["Cc1cccc(C)c1Nc1ccccc1CC(=O)O", 4.07],
  ["O=C([O-])Cc1c(O)cccc1Nc1c(Cl)cccc1Cl.[Na+]", 4.48],
  ["O=C(O)Cc1ccccc1Nc1cccc(Cl)c1Cl", 4.2],
  ["COc1ccc(Cl)c(Nc2ccccc2CC(=O)O)c1Cl", 3.95],
  ["O=C(O)Cc1ccccc1Nc1c(Cl)cccc1I", 4.24],
  ["Cc1cc(C)c(C)c(Nc2ccccc2CC(=O)O)c1C", 4.2],
  ["O=C(O)Cc1ccccc1Nc1ccc(Cl)c(Cl)c1", 4.3],
  ["COc1cc(Cl)c(Nc2ccccc2CC(=O)O)c(Cl)c1O [3'-HYDROXY-4'-METHOXY-DICLOFENAC]", 4.13],
  ["O=C([O-])Cc1ccccc1Nc1c(F)cccc1F.[Na+]", 4.09],
  ["O=C([O-])Cc1cc(F)ccc1Nc1c(Cl)cccc1Cl.[Na+]", 4.02],
  ["O=C(O)Cc1ccccc1Nc1ccccc1", 4.1],
  ["O=C([O-])Cc1ccccc1Nc1c(Cl)cccc1Br.[Na+]", 4.2],
  ["O=C(O)Cc1cc(O)ccc1Nc1c(Cl)cccc1Cl [5-HYDROXY-DICLOFENAC]", 4.22],
  ["COc1cc(Cl)c(Nc2ccccc2CC(=O)O)c(Cl)c1", 4.2],
  ["O=C(O)Cc1ccccc1Nc1cc(Cl)ccc1Cl", 4.1],
  ["Cc1c(Cl)cccc1Nc1ccccc1CC(=O)O", 4.3],
  ["O=C(O)Cc1ccccc1Nc1cc(Cl)cc(Cl)c1", 4.31],
  ["O=C(O)Cc1ccccc1Nc1c(Cl)cc(O)cc1Cl [4'-HYDROXY-DICLOFENAC]", 4.4]
]}

====

// log IC50 collected for Cyclooxygenase (Bos taurus, UniProt O62664+O62698)
ASSAY_METRIC: log IC50

{"columns": ["COMPOUND", "log IC50"],
 "data": [
  ["Cc1cc(C)c(C)c(Nc2ccc(Cl)cc2CC(=O)O)c1C", 1.82],
  ["Cc1cc(C)c(C)c(Nc2ccccc2CC(=O)O)c1C", 0.78],
  ["O=C([O-])Cc1c(O)cccc1Nc1c(Cl)cccc1Cl.[Na+]", 2.33],
  ["O=C(O)Cc1cc(O)ccc1Nc1c(Cl)cc(O)cc1Cl [4',5-DIHYDROXY-DICLOFENAC]", 3.04],
  ["O=C([O-])Cc1ccccc1Nc1c(Cl)cccc1Br.[Na+]", 0.28],
  ["O=C([O-])Cc1ccccc1Nc1c(Cl)cc(F)cc1Cl.[Na+]", 0.05]
]}

a = O=C(O)Cc1ccccc1Nc1c(Cl)cc(O)cc1Cl [4'-HYDROXY-DICLOFENAC]
b = Cc1cccc(Nc2ccccc2CC(=O)O)c1Cl
c = Cc1cccc(Nc2ccccc2CC(=O)O)c1C
d = O=C(O)Cc1cc(O)ccc1Nc1c(Cl)cccc1Cl [5-HYDROXY-DICLOFENAC]
e = COc1cc(Cl)c(Nc2ccccc2CC(=O)O)c(Cl)c1
Order field: log IC50 | Direction: descending (largest first) # the answer lists labels in the order requested
d, a, b, c, e
(d: 3.35, a: 2.15, b: 1.3, c: 0.3, e: 0)

P = O=C(O)Cc1ccccc1Nc1ccccc1
Q = O=C(O)Cc1ccccc1Nc1cccc(Cl)c1Cl
R = Cc1cccc(Cl)c1Nc1ccccc1CC(=O)O
S = O=C([O-])Cc1cc(Cl)ccc1Nc1c(Cl)cccc1Cl.[Na+]
Order each entry by recorded log IC50, climbing from the minimum. Put the labels in the order asked and list them.
R, S, Q, P

P = COc1cc(Cl)c(Nc2ccccc2CC(=O)O)c(Cl)c1O [3'-HYDROXY-4'-METHOXY-DICLOFENAC]
Q = Cc1cccc(C)c1Nc1ccccc1CC(=O)O
Identify the entry with the smaller log IC50: P or Q . Respond with the label that goes with your answer.
Q

P = O=C([O-])Cc1ccccc1Nc1c(F)cccc1F.[Na+]
Q = O=C(O)Cc1c(Br)cccc1Nc1c(Cl)cccc1Cl
Hi! Which is lower in terms of log IC50, the first one P or the second one Q ? Kindly give the label for the entry you pick.
Q

Origin of values: ChEMBL document CHEMBL1124894
